Where these numbers come from: the supplement of paper PMC9170038

System: MS2 coat protein
METHOD: apparent KD of MS2 coat protein; designed switch direction (-1 OFF switch, 1 ON switch): 1; higher = weaker reporter binding
CONDITION PARAMETERS: input ligand: none
Entries and their apparent KD of MS2 coat protein values follow.
Give the value, in units of µM, as a plain number.

Worked examples follow.
- SEQUENCE DATA: "UGGCUCAGACUAGGAUAUAUGCGAUCACAUGAGGAUCACCCAUGUCUCGAGCUUCGGCUCGAGGCAUAGAAGGAGUCUGAGCCU [SSNG2/4-D3] (Eterna round: R96, puzzle: Same State NG 2)"
  MEASURED TARGET: "MS2 coat protein"
  apparent KD of MS2 coat protein / µM: 0.0467
- SEQUENCE DATA: "GACUCUAGAGGAGGAUAUGCAGAGGAUCACCCUGUAGAAGGCCUCAUAAGGAGGAUAUGCAGAGGAUCACCCUGUAGAAGGCCU [pwkr ssNG DX.20] (Eterna round: R96, puzzle: Same State NG 1)"
  MEASURED TARGET: "MS2 coat protein"
  apparent KD of MS2 coat protein / µM: 0.272
- SEQUENCE DATA: "GAGUAGUUGAAAGGAUAUAGAUUAUUGUAGGAUCUAGAAGGUUCUAACAUGAGGAUCACCCAUGUAGGACUAUUCCUGUGUAUC [Parity 88 - Jieux - Same State NG 1] (Eterna round: R96, puzzle: Same State NG 1)"
  MEASURED TARGET: "MS2 coat protein"
  apparent KD of MS2 coat protein / µM: 0.0126
- SEQUENCE DATA: "GCUACCAAAGAAGCCAACAUGAGGAUCACCCAUGUAUGUUGGCAGGAUAUCGAUUGCAAAGCGAUCGAGAAGGGCUAAGGUAGC [Mat - Same State NG 3 - JL Mod - D88] (Eterna round: R96, puzzle: Same State NG 3)"
  MEASURED TARGET: "MS2 coat protein"
  apparent KD of MS2 coat protein / µM: 0.204

Now take the following sequence into account.
The reported apparent KD of MS2 coat protein value, MS2 coat protein, for UAGUUUCAACGAGGAUAUAAUAGGUUCUAUUCGUGAUAUUGCGUACAUGAGGAUCACCCAUGUUAUUAGAAGGCGUAUGGGUUU [JR_SSNG2_Sub086] (Eterna round: R96, puzzle: Same State NG 2) reads 0.0779

====

Test system: K4 kissing-loop RNA reporter;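 further: bound reporter read as fluorescence of individual clusters on recovered sequencing chips by microscopy, with normalized cluster intensities fitted with a binding model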
METHOD: apparent KD of K4 kissing-loop reporter; higher = weaker reporter binding
CONDITION PARAMETERS: Eterna round: R107; input ligand: arginine 13.2 mM
PROPERTY: apparent KD of K4 kissing-loop reporter (nM)
Give the value, in units of nM, as a plain number.

Worked examples follow.
- SEQUENCE DATA: "UAAUCUAACGAGAGUGAUGUUCUCGUCACAGAGGAUAUACGAUUUAGUAGAAGGCUGUUGGAUUCGCUUAAUGAUGACUAGAUUA [FMN A SS t1]"
  MEASURED TARGET: "K4 kissing-loop RNA reporter"
  apparent KD of K4 kissing-loop reporter, nM: 196
- SEQUENCE DATA: "CGCCGAUUGUCGGAGUGAUGUUCCCGGGAUACCAGCACGUCGUCAUGCCCUUGGCAGCCCAACAGACCAUUUUAAAGGCUAGCUG [theeternabot_sameState_KL_Theo_A_35]"
  MEASURED TARGET: "K4 kissing-loop RNA reporter"
  apparent KD of K4 kissing-loop reporter, nM: 97.8
- SEQUENCE DATA: "AAAAUAAACCAGUGAUGUUGGUGUCUAGAUACCAGCGACGAAAGUCGCCCUUGGCAGCUGUGGACGUACAAAAUAAGUACGUCCU [MatMod 5 - Jieux - Same State - Theophylline A]"
  MEASURED TARGET: "K4 kissing-loop RNA reporter"
  apparent KD of K4 kissing-loop reporter, nM: 327

Summary for this sequence, CUAUCUUAAGAAGGAUAUUAUGUAACAAACGCAGGCGUAUUAGAAUCAGUGAUGUUGAAAUAGGUUUAAGAAGGUCUUAAAGAAA [theeternabot_sameState_KL_FMN_B_31] : apparent KD of K4 kissing-loop reporter is 422

Summary for this sequence, CUGCAACAUAACUUCUUCGUCCUAGAAGACUAGGAUAUCAGGAAACUGAGAAGGAGUCUCUGCAGUGAUGUUGCAGCUAGGACGA [[K]'-[F2]'-[F1]'-[F1]-[F2]-[K1]-[K2]-[F]''_Design3] : apparent KD of K4 kissing-loop reporter is 159

Summary for this sequence, AGGAUGUAGUGAUGUUAUAUAAGAAGUAAACGAGGACCGGUACGGCCGCCACUCGAAGCGGCUACUAGCGUGUUGCGAGGUGCGC [ExTryptoA.Cd] : apparent KD of K4 kissing-loop reporter is 324

Summary for this sequence, CUCGUGGGUUUGAGAGGGUUUGUGGGAAGUGAGGAUAUUUAGGGAGAAAGAAGGCACUAUAAAAUAUAGUGAUGUUAUAUAAGGG [SSFMNA.L] : apparent KD of K4 kissing-loop reporter is 141

Summary for this sequence, ACGUAGUUCUAGGAUACCAGCCAAGGUGCCAGGACAAAAGUCCUGGCAGCCAGUGAUGUUGGCCCUUGGCAGCCUAGAACUACGA [Omei KL Theo B Exc B v7] : apparent KD of K4 kissing-loop reporter is 145

Summary for this sequence, UUUAAAUAUAGUGAUGUUAUAUAACAAUGACGAGGACCGGUACGGCCGCCACUCGAGAGAGAUAAUGAUAAAAUACAUAAUUUUC [AstrosSSTrypA#2] : apparent KD of K4 kissing-loop reporter is 746
